tested on: P. falciparum 3D7 growth, pLDH absorbance; assay: blood-stage malaria parasite growth potency – strain 3D7, dose response (AID 2305)
parameter-measured: IC50 (nM)
Please give a number only; it is taken to be in nM.

| molecule | unit-spec | result-value |
| --- | --- | --- |
| Cc1[nH]c(C)c(-c2ccc(OCc3cc(F)cc(F)c3)nc2)c(=O)c1Cl | nM | 90 |
| Cc1cc(Nc2ccc(C)c(C)c2)n2nc(C)nc2n1 | nM | 600 |
| C=C[C@H]1CN2CC[C@H]1C[C@H]2[C@H](OS(=O)(=O)O)c1ccnc2ccccc12 | nM | 620 |
| COc1ccc(S(=O)(=O)N(c2cc(Br)cc3c2OCC3)S(=O)(=O)c2ccc(OC)c(N3CCN(C)CC3)c2)cc1N1CCN(C)CC1 | nM | 1170 |
| Cc1c(-c2ccccc2)ccc2[nH]cc(CC#N)c12 | nM | 700 |

Form field - read-out: IC50; system: P. falciparum 3D7 growth, pLDH absorbance; submitted item: Cc1ncc([N+](=O)[O-])n1CCOC(=O)NC(NCC1COc2ccccc2O1)C(Cl)(Cl)Cl (stereo not given)
220

Form field - read-out: IC50; system: P. falciparum 3D7 growth, pLDH absorbance; submitted item: C=C[C@H]1CN(CCCCCCC)CC[C@H]1CCNc1ccnc2ccc(OC)cc12
60

---

test system: P. falciparum 3D7 growth, pLDH absorbance; experiment: blood-stage malaria parasite growth potency – strain 3D7, dose response (AID 2305)
parameter-measured: IC50 (nM)
Please give a number only; it is taken to be in nM.

Recorded results for 5 molecules are shown here.
| molecule | assayed-system | result-value |
| --- | --- | --- |
| COc1ccc(CCNC(=O)c2cnc3c(c2)nc(-c2cnc(-c4ccccc4)[nH]2)n3CCc2cnc[nH]2)cc1 | P. falciparum 3D7 growth, pLDH absorbance | 970 |
| Cc1ccc(CN2CCN(Cc3cccc(NC(=O)c4cccs4)c3)CC2)cc1C | P. falciparum 3D7 growth, pLDH absorbance | 1030 |
| COc1cc(OC)cc(-c2nc3c(C#N)c(OCCN(C)C)ccc3[nH]2)c1 | P. falciparum 3D7 growth, pLDH absorbance | 650 |
| CC[C@H]1CN2CC[C@H]1C[C@H]2[C@H](O)c1cc(N2CCC3CCCCC3C2)nc2ccc(OC)cc12 (some centres not stated) | P. falciparum 3D7 growth, pLDH absorbance | 170 |
| COc1ccc(CNCCCCCNCc2ccc(Cl)c(Cl)c2)cc1Cl | P. falciparum 3D7 growth, pLDH absorbance | 750 |

So what does the record say about IC50 for CCOc1ccccc1CNc1nccc(NCCc2cn(C)c3ccccc23)n1 ?
1260

So what does the record say about IC50 for N#Cc1cccc(NC(=O)Nc2cccc(-c3cccc(-c4nc5ccccc5[nH]4)c3)c2)c1 ?
90

So what does the record say about IC50 for O=C(/C=C/c1ccc(Cl)c(Cl)c1)NCCCCN1CCC(c2c[nH]c3ccccc23)CC1 ?
860

So what does the record say about IC50 for CCc1c(C)nc(-n2nc(C)cc2NC(=O)CC(c2ccccc2)c2ccccc2)[nH]c1=O ?
650

So what does the record say about IC50 for O=C(/C=C/c1ccc(Cl)c(Cl)c1)NCCC1CCC(N2CCC(c3c[nH]c4ccccc34)CC2)CC1 (configuration not stated) ?
200

So what does the record say about IC50 for O=C(/C=C/c1ccc(Cl)c(Cl)c1)N1CCC(CCN2CCC(c3c[nH]c4ccccc34)CC2)CC1 ?
600

So what does the record say about IC50 for O=C(Cc1cnc[nH]1)Nc1cccc(-c2ccc(-c3nc4ccc(F)cc4[nH]3)cc2)c1 ?
810

So what does the record say about IC50 for CC(COc1ccc2c(c1)OC(C)(C)CC2c1ccccc1)NCC(O)c1cccc(Cl)c1 (configuration not stated) ?
750

So what does the record say about IC50 for COc1cc(CNCCCNc2nc3ccsc3c(=O)[nH]2)c2[nH]cc(Cl)c2c1 ?
890

So what does the record say about IC50 for CCc1ccc(CN2CCC(CNC(=O)c3cc(-c4cccc(Cl)c4)cs3)C2)cc1 (configuration not stated) ?
1110

So what does the record say about IC50 for CN(CCc1ccccn1)c1cccc2c1nc(-c1cccnc1)n2CCNCc1ccccc1 ?
1060

So what does the record say about IC50 for O=C(O[C@H]1CN[C@H](C#Cc2cc3c(Nc4ccc(OCc5cccc(F)c5)c(Cl)c4)ncnc3s2)C1)N1CCCC1 ?
710

---

Listing of entries alongside the reported IC50.
tested on: P. falciparum 3D7 growth, pLDH absorbance; assay: blood-stage malaria parasite growth potency – strain 3D7, dose response (AID 2305)
Please give a number only; it is taken to be in nM.

| molecule | assayed-system | unit-spec | IC50 |
| --- | --- | --- | --- |
| COc1cc2c(cc1NS(=O)(=O)c1ccc(OCc3ccc(Br)cc3)cc1)CCN(C1CCC1)CC2 | P. falciparum 3D7 growth, pLDH absorbance | nM | 840 |

We now examine a further molecule.
So what does the record say about IC50 for CC(C)CCNc1nc2ccccc2nc1Nc1cccc(C(F)(F)F)c1 ?
910

---

test system: P. falciparum 3D7 growth, pLDH absorbance; assay: blood-stage malaria parasite growth potency – strain 3D7, dose response (AID 2305)
parameter-measured: pIC50
Please note pIC50 is a logarithmic value: minus log10 of concentration in mol/L. Answer with that number alone.

Recorded results for 5 compounds are shown here.
| compound | pIC50 |
| --- | --- |
| Cc1cc(OCCCN2CCC(NS(=O)(=O)c3cccc(Br)c3)CC2)c2ccccc2n1 | 5.95 |
| CN1CCN(c2ccnc3ccc(NC(=O)Nc4ccc5c(c4)CCCC5=O)cc23)CC1 | 6.89 |
| COc1cc2c(=O)c(Cc3ccc(Cl)cc3)c(C)[nH]c2cc1F | 5.94 |
| O=S(=O)(c1ccccc1C(F)(F)F)C1C[C@H]2CC[C@@H](C1)N2S(=O)(=O)c1ccc(Cl)c(C(F)(F)F)c1 (some centres undefined) | 6.15 |
| COc1ccc2nccc([C@@H](O)CN3CCC(NC(=O)C(c4cc5ccccc5s4)N4CCN(c5ccccc5OC)CC4)CC3)c2c1 (some centres undefined) | 6.80 |

So what does the record say about pIC50 for O=c1cc(NCCCNCc2cccc(OC(F)(F)F)c2)[nH]c2ccccc12 ?
6.07

So what does the record say about pIC50 for CN1CCN(c2cc3c(Nc4ccc5c(cnn5Cc5ccccc5)c4)ncnc3cn2)CC1 ?
5.95

So what does the record say about pIC50 for O=C(/C=C/c1ccc(Cl)cc1)NCCCCCN1CCCN(C(=O)Nc2ccc(F)c(Cl)c2)CC1 ?
6.11

So what does the record say about pIC50 for CN(C)CCN(C)Cc1ccc(-c2cccc(NC(=O)c3cccc(C#N)c3)c2)cc1 ?
5.93

---

system: P. falciparum 3D7 growth, pLDH absorbance; experiment: blood-stage malaria parasite growth potency – strain 3D7, dose response (AID 2305)
Listing of entries alongside the reported IC50.
Please answer in the form of a number followed by its unit of measurement.

Recorded results for 3 compounds are shown here.
| compound | IC50 |
| --- | --- |
| Cc1csc(-c2nc(NCCc3c(C)noc3C)ncc2-c2ccsc2)n1 | 180 nM |
| CCN(CC)C(=NCCCCCCCCN=C(/N=C(/N)Nc1ccc(Cl)cc1)N(CC)CC)/N=C(/N)Nc1ccc(Cl)cc1 | 400 nM |
| CCN(CC)CCNC(=O)c1ccc(Nc2ncc([N+](=O)[O-])c(Nc3ccccc3OC)n2)cc1 | 140 nM |

So what does the record say about IC50 for CN1CCCc2cc(NC(=O)C=Cc3ccc(-c4ccc(F)cc4F)o3)ccc2C1 ?
780 nM

So what does the record say about IC50 for C[C@@H](Nc1nc(NCc2ccccc2)c2sccc2n1)c1ccccc1 ?
920 nM

So what does the record say about IC50 for Cc1cc(N2CCCC2)nc(/N=C(\N)Nc2cccc(C(F)(F)F)c2)n1 ?
320 nM

---

Listing of entries alongside the reported pIC50.
test system: P. falciparum 3D7 growth, pLDH absorbance; test: blood-stage malaria parasite growth potency – strain 3D7, dose response (AID 2305)
Please note pIC50 is a logarithmic value: minus log10 of concentration in mol/L. Answer with that number alone.

Recorded results for 3 molecules are shown here.
| molecule | assayed-system | result-value |
| --- | --- | --- |
| CN1CCC(NCc2ccc(-c3cccc(S(=O)(=O)NCCc4ccccn4)c3)cc2)CC1 | P. falciparum 3D7 growth, pLDH absorbance | 6.00 |
| CN1CCCC(CN2CCN(Cc3ccc(-c4ccc(-c5nc6ccc(F)cc6[nH]5)s4)cc3)CC2)C1 (stereo not given) | P. falciparum 3D7 growth, pLDH absorbance | 6.89 |
| O=C(NCc1ccc(F)cc1)Nc1cccc(-c2ccc(-c3nc4ccccc4[nH]3)cc2)c1 | P. falciparum 3D7 growth, pLDH absorbance | 6.77 |

So what does the record say about pIC50 for Cc1cc(NCCCOc2ccc(Cl)cc2)nc(NCc2ccccc2)n1 ?
6.11

So what does the record say about pIC50 for O=C(Nc1cccc(-c2ccc(-c3nc4ccc(C(F)(F)F)cc4[nH]3)cc2)c1)c1cnc[nH]1 ?
6.01

So what does the record say about pIC50 for COc1cccc2c(NN=Cc3cccc(Cl)c3)cc(C)nc12 ?
6.15

So what does the record say about pIC50 for COc1cc2c(c(Cl)c1OC)CCN(Cc1ccccc1)CC2c1ccc(NC(=O)C(F)(F)F)cc1 (stereo not given) ?
6.04

So what does the record say about pIC50 for O=S(=O)(NCCN1CCCC1)c1ccc(-c2cccc(CNCCc3cccs3)c2)s1 ?
6.15

So what does the record say about pIC50 for Cc1cc(NN=Cc2ccccc2Cl)c2ccccc2n1 ?
6.05

So what does the record say about pIC50 for CN(C)c1ccc(N2C(N)=NC(N)=NC23CCCC3)cc1 ?
6.03
